molecular target: SARS-CoV-2 RBD subunit (recombinant) (SARS-CoV-2 Wuhan-Hu-1, UniProt P0DTC2)
METRIC_NAME: binding result

C68.100 (antibody, V domains shown) VH: EVQLVQSGAEVKKPGESLRISCKGSGYIFNSYWIIWVRQMPGKGLEWMGRIDPSDSYTNYSPSFQGHVTMSVDKSINTAYLQWSSLKASDTAMYYCARVRFGELSWDTFDYWGQGTLVTVSS VL: DIQVTQSPSSLSASVGDRVTITCRASQSMSYYLNWYQQKPGKAPKLLISAASSLQSGVPSRFSGSGSGTDFTLTISSLQPEDFATYYCQQSYSTPYTFGQGTKLEIK :: binds
C68.123 (antibody, V domains shown) VH: EVQLVESGGGLVQPGGSLRLSCSASGFTFSSYTLHWVRQAPGKGLEYVSSISSNGGSTYYADSVKGRFTISRDNSKNTLFLQMSSLRAEDTAIYYCVKGVWLHDFWSGYPSRWGQGTPVTVSS VL: DIQLTQSPSTLSASVGDRVTITCRASQSISNWLAWYQQKPGKAPNLLIYDASSLESGVPSRFSGSGSGTEFTLTISSLQPDDFATYYCQQYNSYPWTFGQGSKVDIK :: binds
